The reader will find reported pIC50 values listed item by item below.
- test_target: UniProt:Q25856
- Sequence (Q25856 whole entry): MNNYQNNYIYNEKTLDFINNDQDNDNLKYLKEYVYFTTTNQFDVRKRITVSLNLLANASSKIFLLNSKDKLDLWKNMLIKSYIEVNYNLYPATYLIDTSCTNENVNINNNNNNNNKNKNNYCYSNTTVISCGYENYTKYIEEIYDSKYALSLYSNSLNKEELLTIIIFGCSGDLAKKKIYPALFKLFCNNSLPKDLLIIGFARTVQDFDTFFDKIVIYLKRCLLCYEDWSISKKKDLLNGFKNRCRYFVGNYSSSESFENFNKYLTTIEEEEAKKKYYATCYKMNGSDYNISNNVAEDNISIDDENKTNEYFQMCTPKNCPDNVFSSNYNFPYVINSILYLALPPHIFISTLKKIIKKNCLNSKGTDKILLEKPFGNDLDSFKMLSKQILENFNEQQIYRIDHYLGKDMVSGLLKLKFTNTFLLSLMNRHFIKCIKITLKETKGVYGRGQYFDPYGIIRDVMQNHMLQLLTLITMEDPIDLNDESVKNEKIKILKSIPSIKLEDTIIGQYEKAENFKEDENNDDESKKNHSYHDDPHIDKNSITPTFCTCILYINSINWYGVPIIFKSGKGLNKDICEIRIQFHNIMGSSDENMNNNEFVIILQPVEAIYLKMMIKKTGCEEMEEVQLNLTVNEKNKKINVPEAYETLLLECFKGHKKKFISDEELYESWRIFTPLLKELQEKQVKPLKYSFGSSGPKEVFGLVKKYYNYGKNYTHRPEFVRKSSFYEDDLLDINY
- assay_details: Inhibition of Plasmodium falciparum glucose-6-phosphate dehydrogenase after 2 hrs by resazurin/diaphorasecoupled assay
pIC50: −log10 of the molar value.

Reference set, count: 3
CCN1CCCC1CNC(=O)c1ccc2c(c1)NC(=O)C(Cc1ccccc1F)S2 (centres undefined) :: < 4.10
O=C1Nc2cc(C(=O)NCCN3CCCCCC3)ccc2S/C1=C\c1ccccc1Cl :: 4.39
CCCN(CCC)CCNC(=O)c1ccc2c(c1)NC(=O)/C(=C/c1ccccc1)S2 :: < 4.10

Shifting focus to the molecule that follows.
The value of pIC50 measured for the molecule CCN1CCCC1CNC(=O)c1ccc2c(c1)NC(=O)CS2 (centres undefined) turned out to be < 4.10
